# key: entry, value: IC50
System: XBP1(u)-luciferase splicing reporter in HepG2 hepatoma cells
Assay: HepG2 XBP1 reporter assay (XBP1(u)-Luc)
Type: cell-based
Conditions: Homo sapiens, 6 h, six hours after addition of compound

Some compounds with known IC50 results, for comparison:
INSERT INTO measurements (compound, value_measured) VALUES
  ('C#CCOc1cc(Cl)c([C@@H]2COCCCN2c2cc(C)nc(N)n2)cc1OC', '≥ 5000 nM'),
  ('Cc1cc(N2CCCOC[C@H]2c2ncc(CS(C)(=O)=O)cc2Cl)nc(N)n1', '≥ 5000 nM'),
  ('Cc1cc(N2CCCOC[C@@H]2c2ccc(S(=O)(=O)C3CCC3)cc2Cl)nc(N)n1', '600 to 2000 nM'),
  ('Cc1cc(N2CCCOCC2c2ccc(O)cc2C(F)(F)F)nc(N)n1 (stereo not drawn)', '< 600 nM');

Task: Which IC50 is listed for Cc1cc(N2CCCOCC2c2ccc(C(C)(C)S(C)(=O)=O)cc2Cl)nc(N)n1 (stereo not drawn) ?
Result: < 600 nM

Task: Next compound up: C#Cc1ccccc1C1COCCCN1c1cc(C)nc(N)n1 (stereo not drawn)
Result: 600 to 2000 nM

Task: Now the same for "CCOC(=O)[C@@]1(C)CNc2cc(Cl)c([C@H]3COCCCN3c3cc(C)nc(N)n3)cc2O1"
Result: 600 to 2000 nM

Task: Continue with Cc1cc(N2CCCOCC2c2cc(OC(F)F)c(Cl)cc2Cl)nc(N)n1 (stereo not drawn)
Result: 2000 to 5000 nM

Task: What do you get for "Cc1cc(N2CCCOC[C@@H]2c2cc(CN)c(Cl)cc2C)nc(N)n1" ?
Result: < 600 nM
